Tested on: HaCaT
Assay: Cytotoxicity against human HaCaT cells after 48 hrs by sulforhodamine B assay
Format: cell-based
Friendly reminder: LC50 below 5 µg/mL is criterion met, at or above is criterion not met.

As a guide, the following entries are already answered.
CCCCCC[C@@H](O)C/C=C\CCCCCCCC(=O)N1CCOCC1 ... criterion not met
CCCCCC[C@@H](O)C/C=C\CCCCCCCC(=O)N1CCCCC1 ... criterion met

Let's switch to this compound now.
Q: Is 5 µg/mL strictly greater than the compound's reported LC50? compound: CCCCCCCC/C=C\CCCCCCCC(=O)N1CCOCC1
Ans: criterion not met

----------
Tested on: HaCaT
Experiment: Cytotoxicity against human HaCaT cells after 48 hrs by sulforhodamine B assay
Format: cell-based
Friendly reminder: LC50 below 10 µg/mL is rule met, at or above is rule not met.

As a guide, the following entries are already answered.
CCCCCCCC/C=C\CCCCCCCC(=O)N1CCCCC1 ... rule met
CCCCCCCCCCCCCCCCCC(=O)N1CCCC1 ... rule met
CCCCCC[C@@H](O)C/C=C\CCCCCCCC(=O)N[C@@H](C)c1ccccc1 ... rule met
CCCCCC[C@@H](O)C/C=C\CCCCCCCC(=O)NCc1ccccc1 ... rule not met

Q: Is 10 µg/mL strictly greater than the compound's reported LC50? compound: CCCCCCCCCCCCCCCC(=O)N1CCCC1
Ans: rule met

Q: Can you handle CCCCCCCCCCCCCCCC(=O)N1CCOCC1 next?
Ans: rule not met
